- target_under_test: H-2 D^d (Mus musculus, UniProt P01900)
- Sequence (P01900 whole entry, looked up): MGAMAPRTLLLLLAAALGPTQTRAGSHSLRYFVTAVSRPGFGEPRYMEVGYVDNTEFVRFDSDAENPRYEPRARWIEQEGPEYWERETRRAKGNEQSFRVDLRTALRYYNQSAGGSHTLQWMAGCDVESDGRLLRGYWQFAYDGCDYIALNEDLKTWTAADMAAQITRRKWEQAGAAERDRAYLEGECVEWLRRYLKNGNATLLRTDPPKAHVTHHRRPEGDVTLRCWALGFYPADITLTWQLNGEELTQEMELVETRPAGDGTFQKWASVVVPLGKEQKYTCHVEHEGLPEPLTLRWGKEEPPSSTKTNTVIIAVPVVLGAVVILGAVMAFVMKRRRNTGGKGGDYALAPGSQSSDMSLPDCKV
- Type: binding
Each record gets a class by Normalized average relative binding affinity (ARB), H-2 Dd: LOW = under 0.01, MID = from 0.01 up to 0.06, HIGH = 0.06 and over

# input_sequence, target_under_test, class
rows = [
    ("TXXXXXXXX [3064.0017]", "H-2 D^d (Mus musculus, UniProt P01900)", "HIGH"),
    ("XXNXXXXXX [3064.0052]", "H-2 D^d (Mus musculus, UniProt P01900)", "LOW"),
    ("GXXXXXXXX [3064.0006]", "H-2 D^d (Mus musculus, UniProt P01900)", "HIGH"),
]

Here is the next item to consider.
[Q] Band assignment needed for XSXXXXXXX [3064.0036] please.
[A] MID

----------
IC50 values for the molecules below.
- target_under_test: HLA B*0801 (Homo sapiens, UniProt P01889, A93T/A95T/D138N/E176V/E187T/K202T/Q94N/R180D/S35A/V36M/Y33D/Y91F)
- protocol_details: biochemical
Where a SMILES comes first, the peptide text is derived from it.
Hi! Could you send only the number? It should be in nM, unit omitted.

Please review the entries below; each comes with its answer.
# molecule, unit_label, IC50
records = [
    ("CC[C@H](C)[C@H](NC(=O)[C@H](Cc1c[nH]cn1)NC(=O)[C@H](CC(N)=O)NC(=O)[C@H](CCCCN)NC(=O)[C@H](CCCNC(=N)N)NC(=O)[C@H](Cc1ccccc1)NC(=O)[C@H](CCCNC(=N)N)NC(=O)[C@@H](NC(=O)[C@@H](N)Cc1ccc(O)cc1)[C@@H](C)CC)C(=O)O [3102.0888] (H-YIRFRKNHI-OH)", "nM", 1.4),
    ("CC[C@H](C)[C@H](NC(=O)[C@@H]1CCCN1C(=O)[C@H](CCCCN)NC(=O)[C@@H](NC(=O)[C@H](CCCNC(=N)N)NC(=O)[C@H](CC(N)=O)NC(=O)[C@H](CCCNC(=N)N)NC(=O)[C@H](CCSC)NC(=O)[C@@H](N)CCSC)[C@@H](C)O)C(=O)O [3102.0668] (H-MMRNRTKPI-OH)", "nM", 1.5),
    ("CC[C@H](C)[C@H](NC(=O)[C@H](CCCCN)NC(=O)[C@H](Cc1c[nH]cn1)NC(=O)[C@H](CCCCN)NC(=O)[C@@H](NC(=O)[C@H](CCCCN)NC(=O)[C@H](CO)NC(=O)[C@@H](N)CCSC)[C@@H](C)CC)C(=O)N[C@@H](Cc1ccccc1)C(=O)O [3102.0769] (H-MSKIKHKIF-OH)", "nM", 0.84),
]

Let us examine a further case.
[Q] Look up IC50 of CC[C@H](C)[C@H](NC(=O)[C@@H](N)CO)C(=O)N[C@@H](Cc1c[nH]cn1)C(=O)N[C@@H](CCC(=O)O)C(=O)N[C@@H](CCCCN)C(=O)N[C@@H](Cc1ccccc1)C(=O)N[C@@H](Cc1c[nH]c2ccccc12)C(=O)N1CCC[C@H]1C(=O)N[C@@H](CC(C)C)C(=O)O [3102.0550] (H-SIHEKFWPL-OH) and report it.
[A] 1.4
